- ASSAY SYSTEM: T1, human C5 R885C-mmh (human, UniProt P01031 19-1676)
- T1 construct: also called human C5 variant R885C
- ASSAY DETAILS: SPR, mAb captured via anti-hFc, 25C
- Protocol: Equilibrium dissociation constants (KD values) for C5 binding to purified anti-C5 antibodies were determined using a real-time surface plasmon resonance biosensor assay on a Biacore T200 instrument. […] Human C5 was obtained from a commercial source (EMD). […] Association of all the C5 reagents to each of the captured monoclonal antibodies was monitored for 3 minutes and their dissociation in HBST running buffer was monitored for 8 minutes. […]

>  <BINDER>
H4H12170P (antibody, human IgG4, V domains shown, Human IgG4 Fc with S108P hinge mutation (H4H)) VH: QVQLVESGGGVVQPGRSLRLSCAASGFTFSGYGMHWVRQAPGKGLEWVALIWLDGSNDYYADSVKGRFTISRDNSKNTLYLQMNRLRAEDTAVYYCARDGPVAAIPDYWGQGTLVTVSS VL: DIQMTQSPSTLSASVGDRVTITCRASQSISRWLAWYQLKPGKAPKLLIYKASSLESGVPSRFSGSGSGTDFTLTISSLQPDDFATYYCQQYNTYSYTFGQGTKLEIK

>  <Kd, nM>
0.447

$$$$
>  <BINDER>
H4H11686N (antibody, V domains shown, also called H2M11686N) VH: QVQLVESGGGLVKPGGSLRLSCAASGFTFSDYYMSWIRQAPGKGLEWVSYISSSGNTIKYADSMKGRFTISRDNAKKSLFVEMNSLRAEDTAVYYCARYKSSSDYFDHWGQGTLVTVSS VL: EIVLTQSPATLSLSPGERATLSCRASQSVRSYLAWYQQKPGQAPRLLIYDASNRATAIPARFSGSGSGTDFTLTISSLEPEDLAVYYCQQSGNWPLTFGGGTKVEIK

>  <Kd, nM>
0.534

$$$$
>  <BINDER>
H4H12164P (antibody, human IgG4, V domains shown, Human IgG4 Fc with S108P hinge mutation (H4H)) VH: EVQLVESGGGLVRSGGSLRLSCAASGFTFNRYAMTWVRQAPGKGLEWVSAISGSGSSTYYTDSVKGRFTISRDNSKNSVDLQMHSLRVEDTAIYYCARGTTVTTGYGMDVWGQGTTVTVSS VL: DIQMTQSPSSLSASVGDRVTFTCQASQDITNSLNWYQQKPGRAPKLLIYDASYLKAGVPSRFSGSGSGTDFTFTISSLQPEDIATYYCQQYDDLPYTFGQGTKLEIK

>  <Kd, nM>
1.19

$$$$
